# tgt: T1, biotinylated goat anti-human kappa light chain
# T1 construct: Positive control of the ELISA
# procedure_summary: ELISA; positive control; further: test concentration or dose not given here
# Experimental: The binding of ACVR2A-specific monoclonal antibodies to human ACVR2A, mouse ACVR2A, biotinylated goat anti-human kappa light chain (positive control) and human Fc (negative control) were determined by ELISA.
Measured optical density by item

370_E07 (antibody, V domains shown, VH/VL only) VH: EVQLLESGGGLVQPGGSLRLSCAASGFTFDSYSMNWVRQAPGKGLEWVANINYNGGYTGYADSVKGRFTISRDNSKNTLYLQMNSLRAEDTAVYYCARSATWHDTHLDYWGQGTLVTVSS VL: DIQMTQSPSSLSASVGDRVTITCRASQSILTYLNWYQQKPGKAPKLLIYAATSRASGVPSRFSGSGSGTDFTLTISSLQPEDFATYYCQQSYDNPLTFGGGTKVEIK | 3.45 OD

Indicate its recorded optical density; the binder in question is 371_F05 (antibody, V domains shown, VH/VL only) VH: EVQLLESGGGLVQPGGSLRLSCAASGFTFSSYSMNWVRQAPGKGLEWVAGINYNSGYKSYADSVKGRFTISRDNSKNTLYLQMNSLRAEDTAVYYCARSATWHDTHLDYWGQGTLVTVSS VL: DIQMTQSPSSLSASVGDRVTITCRASQSILSYLNWYQQKPGKAPKLLIYAATSRHSGVPSRFSGSGSGTDFTLTISSLQPEDFATYYCQQSYENPLTFGGGTKVEIK 3.33 OD

Indicate its recorded optical density; the binder in question is 374_G06 (antibody, V domains shown, VH/VL only) VH: EVQLLESGGGLVQPGGSLRLSCAASGFTFSSYGMHWVRQAPGKGLEWVASINYNGGYTSYADSVKGRFTISRDNSKNTLYLQMNSLRAEDTAVYYCARSANWHDTALDYWGQGTLVTVSS VL: DIQMTQSPSSLSASVGDRVTITCRASQSILSYLNWYQQKPGKAPKLLIYAVTSRASGVPSRFSGSGSGTDFTLTISSLQPEDFATYYCQQSYDLPLTFGGGTKVEIK 3.29 OD

From: patent US20210380703A1
